assay: DAS solubility at 25 °C in different environments; type: physicochemical; conditions: pH 6, Water (ultrapure, pH about 6.0), read-out: DAS Solubility (mg/mL)
measuredMetric: solubility at 3 days (mg/mL)
Give the value, in units of mg/mL, as a plain number.

Please give the measured solubility at 3 days for this compound: Cc1nc(Nc2ncc(C(=O)Nc3c(C)cccc3Cl)s2)cc(N2CCN(CCO)CC2)n1
0.000649

###

assay: DAS solubility at 25 °C in different environments; assay type: physicochemical; conditions: pH 6, Water (ultrapure, pH about 6.0), read-out: DAS Solubility
measuredMetric: solubility at 3 days

Please give the measured solubility at 3 days for this molecule: Cc1nc(Nc2ncc(C(=O)Nc3c(C)cccc3Cl)s2)cc(N2CCN(CCO)CC2)n1
1.33 µM
